Tested on: P388 leukemia ip, CD2F1 mice, survival T/C
protocolDescription: NCI In Vivo Anticancer Drug Screen. Data for tumor model P388 Leukemia (intraperitoneal) in CD2F1 (CDF1) mice
experimentalContext: endpoint: median survival time; dose: 25.0 mg/kg/injection; schedule: Q01DX009 (ip); vehicle: other; higher = longer survival
Inconclusive results and toxic doses are left out.
Recorded measurements of T/C, one per entry

- compound: "COC1OCC(NC(=O)c2ccccc2)C(OS(C)(=O)=O)C1OS(C)(=O)=O (stereo not given)"
  T/C: "87 % of control"
- compound: "Nc1ccc(NC(=O)c2ccc([N+](=O)[O-])cc2)cc1"
  T/C: "115 % of control"
- compound: "O=C(O)CNOCc1ccccc1"
  T/C: "102 % of control"
- compound: "COC(=O)C(CS)NC(=O)C(Cc1c[nH]c2ccccc12)NC(=O)OC(C)(C)C (stereo not given)"
  T/C: "103 % of control"
- compound: "O=NN(CC(=O)OCc1ccccc1)OCc1ccccc1"
  T/C: "104 % of control"
- compound: "CCOC(=O)C1C/C(=N\\OC(C)=O)c2ccc(OC)c(OC)c2C1 (stereo not given)"
  T/C: "101 % of control"
- compound: "O=C(O)C1SCSC1C(=O)O (stereo not given)"
  T/C: "94 % of control"
- compound: "Nc1ccc2[nH]c3cnccc3c2c1"
  T/C: "108 % of control"
- compound: "O=[N+]([O-])c1ccc(N/N=C(/C(=N/Nc2ccc([N+](=O)[O-])cc2)c2ccccc2)c2ccccc2)cc1"
  T/C: "87 % of control"
- compound: "C=C(N=[N+]=[N-])c1ccccc1"
  T/C: "112 % of control"

// provenance: PubChem BioAssay AID330
